target: X-box-binding protein 1 (Homo sapiens) (UniProt P17861); experiment: ATG_Xbp1_CIS: Attagene CIS-FACTORIAL HepG2 Assay for human X-box Binding Protein 1 (XBP1) (AID 2282972); details: HepG2 XBP1 cis-element reporter, Attagene multiplex; actives raise or lower the signal
Sequence (P17861 whole entry, looked up): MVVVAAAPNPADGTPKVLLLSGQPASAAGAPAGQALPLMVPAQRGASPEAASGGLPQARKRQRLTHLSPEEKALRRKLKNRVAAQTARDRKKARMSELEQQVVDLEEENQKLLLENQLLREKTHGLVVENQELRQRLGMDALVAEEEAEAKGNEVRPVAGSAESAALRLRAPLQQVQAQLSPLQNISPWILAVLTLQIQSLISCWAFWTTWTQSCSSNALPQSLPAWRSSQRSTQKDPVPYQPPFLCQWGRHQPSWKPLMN
Calls of active or inactive are those of the source. The calls were made as follows: active = hit-call score of the fitted dose curve at least 0.9, where 1 is the maximum; inactive = score below 0.9.
Could you please pick one outcome from this set? True for active, False for inactive

Answered cases to consult:
molecule=O=C(CCl)NCO tested_target="X-box-binding protein 1 (Homo sapiens) (UniProt P17861)" class_assignment=False
molecule=CCOP(=S)(OCC)SCS(=O)(=O)C(C)(C)C tested_target="X-box-binding protein 1 (Homo sapiens) (UniProt P17861)" class_assignment=False
molecule="CC(C=O)Cc1ccc2c(c1)OCO2 (centres undefined)" tested_target="X-box-binding protein 1 (Homo sapiens) (UniProt P17861)" class_assignment=False
molecule=NNCCO tested_target="X-box-binding protein 1 (Homo sapiens) (UniProt P17861)" class_assignment=False
molecule=CCCCN(CCCCO)N=O tested_target="X-box-binding protein 1 (Homo sapiens) (UniProt P17861)" class_assignment=False
molecule=CCCCOC(C)=O tested_target="X-box-binding protein 1 (Homo sapiens) (UniProt P17861)" class_assignment=False
molecule=Cc1c([N+](=O)[O-])c(C)c([N+](=O)[O-])c(C(C)(C)C)c1[N+](=O)[O-] tested_target="X-box-binding protein 1 (Homo sapiens) (UniProt P17861)" class_assignment=True
molecule=Oc1c(Br)cc(Br)cc1Br tested_target="X-box-binding protein 1 (Homo sapiens) (UniProt P17861)" class_assignment=True
molecule=CC(C)(c1ccc(O)c(-c2ccccc2)c1)c1ccc(O)c(-c2ccccc2)c1 tested_target="X-box-binding protein 1 (Homo sapiens) (UniProt P17861)" class_assignment=True
molecule=Oc1c(Cl)cc(Cl)cc1Cl tested_target="X-box-binding protein 1 (Homo sapiens) (UniProt P17861)" class_assignment=False

Could you please tell me the result logged for CC1CC(=O)O1 (centres undefined) in this assay?
False

Could you please tell me the result logged for "O=C(Cc1ccccc1)OCCc1ccccc1" in this assay?
False

Could you please tell me the result logged for "O=c1[nH]c2ccccc2n1C1CCN(CCCC(c2ccc(F)cc2)c2ccc(F)cc2)CC1" in this assay?
False

Could you please tell me the result logged for "CN(C)c1ccc(N=O)cc1" in this assay?
False
